Measurement Type: melting point (°C)
// units = °C; emit number, no label

Param item = CCN(CC)c1ccc(C=C2SC(=S)NC2=O)cc1 ; retrieve measured melting point.
163

And the next one, CC(C)(C)Oc1ncc(Br)c(OC(C)(C)C)n1 ?
60

Do the same for COc1ccc([C@@H](O)[C@@H](CO)Oc2c(OC)cccc2OC)cc1OC please
111

Param item: O=C(O)c1onc2ccccc12
185

Then this molecule: CC(C)(C)c1cc(C(=O)O)n(Cc2ccccc2)n1
126

Can you check c1ccc2c(c1)oc1ccccc12 next?
86.5

// query: CCOC(=O)Oc1c(-c2ccccc2)n(C(C)=O)c2cc([N+](=O)[O-])ccc12
133

Likewise for Oc1cc(C(F)(F)F)ccn1 ?
159

Moving on to the next molecule: CC(OCC(=O)c1ccccc1)=C(C#N)c1ccccc1
111

And what about the molecule CN(N=O)C(N)=O ?
121

And for CCCC(C)(O)CCC ?
-82

Cool, now CCC1(C2=CCCCCC2)C(=O)NC(=O)NC1=O
174

Record: CCOC(=O)Nc1ccc2cc3ccc4c(c3nc2c1)COCN4C(=O)OCC
174

Let us now turn to NC(CCS(=O)(=O)O)C(=O)O (racemic)
273

And the next one, O=C1NC(=S)NC(=O)C1=NNc1ccc(Br)cc1 ?
268

Then CC(C)(C)c1ccc(C2CCC3(CC2)Cc2ccc(O)cc2C3)cc1 (stereo unspecified) ?
156

And C=CC(=O)N1CCOCC1 ?
-8
